Where these numbers come from: ChEMBL document CHEMBL4689842

Each record here notes measured Population Mitochondria Different-Phenotype (%).
test system: Fibroblast; assay: Multiplex assay against human fibroblast; assay type: toxicity, cell-based; details: 12 h, 10 µM, compound concentration 10 uM, replicate 1
Use % as the unit, but write only the number.

Look over these answered cases.
{"columns": ["compound-structure", "meas-value"],
 "data": [
  ["COc1cc2c(Nc3ccc(NC(=O)c4ccccc4)cc3)ncnc2cc1OCCCN1CCOCC1", 5],
  ["CNC(=O)c1cc(Oc2ccc(NC(=O)Nc3cc(C(C)(C)C)nn3-c3ccc4ncccc4c3)c(F)c2)ccn1", 16]
]}

// moving on: another record for Population Mitochondria Different-Phenotype (%)
Challenge: Hello, I am looking for reported Population Mitochondria Different-Phenotype (%) with Fibroblast for `CN(C)CCOc1ccc(-c2nc(-c3ccncc3)c(-c3ccc4c(c3)CC/C4=N\O)[nH]2)cc1` . Could you help?
Response given: 5
